The origin of these recorded values is paper PMC5538626.

target or test system: LC3B (for ITC and NMR) (human, UniProt Q9GZQ8 1-120)
assay overview: ITC; peptide 0.4 mM titrated into 0.020 mM LC3/GABARAP protein in 26 steps, 25°C; 50 mM Na2HPO4, 100 mM NaCl, pH 7.0; one-site model
condition info: both partners purified
property measured: Kd (µM)
Your answer should be a plain number; it is taken to be in µM.

State its Kd for this binder: GAMGPQQEDEWVNVQYPD (cloning artefact left after TEV cleavage; PLEKHM1 LIR, residues 629-642; 13C,15N- or 15N-labelled for some NMR experiments; also called PLEKHM1‐LIR WT; source: E. coli NEB T7, as Ub63 fusion, TEV-cleaved, purified (Ni-NTA, reverse Ni-NTA, gel filtration)) [PLEKHM1‐LIR peptide (GAMG‐P^629QQEDEWVNVQYPD^642)]
6.33
